MEASURED ON: T1, human MHC class II DR protein (DRA*0101/DRB1*0401), purified from PRIESS cells (human, UniProt P01903 26-254; P01911 30-266, limits assumed)
T1 construct: mature; also called HLA-DR protein; MHCII
T1 MHC II alpha: not shown
T1 MHC II beta: not shown
PROTOCOL TEXT: SPR (BIAcore), MHCII on CM5 chip
READOUT: Kd (nM)
Lab book: enter the figure in nM, no units written.

Data point: MS-GPC-8-6-2 Fab (Fab, V domains shown, Fab: VH-CH1 with FLAG tag and STREP tag II, VL-CL; VH residue 1 is Q in Fab) VH: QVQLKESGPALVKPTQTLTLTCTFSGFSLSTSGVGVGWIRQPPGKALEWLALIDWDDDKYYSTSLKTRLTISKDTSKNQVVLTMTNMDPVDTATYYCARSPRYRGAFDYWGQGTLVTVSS VL: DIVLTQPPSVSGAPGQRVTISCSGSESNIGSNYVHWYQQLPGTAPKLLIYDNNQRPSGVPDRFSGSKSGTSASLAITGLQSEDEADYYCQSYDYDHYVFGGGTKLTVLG ; Kd = 7.61

Entry under test: MS-GPC-8-27-41 Fab (Fab, V domains shown, Fab: VH-CH1 with FLAG tag and STREP tag II, VL-CL; VH residue 1 is Q in Fab; also called 1D09C3) VH: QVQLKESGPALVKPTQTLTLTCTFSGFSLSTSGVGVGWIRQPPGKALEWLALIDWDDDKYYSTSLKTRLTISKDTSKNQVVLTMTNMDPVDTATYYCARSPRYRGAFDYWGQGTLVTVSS VL: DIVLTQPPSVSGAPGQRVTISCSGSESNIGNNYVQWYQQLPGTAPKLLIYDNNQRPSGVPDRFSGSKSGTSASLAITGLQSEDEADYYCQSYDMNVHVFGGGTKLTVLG . Its Kd was 2.93

// MS-GPC-8-17 Fab (Fab, V domains shown, Fab: VH-CH1 with FLAG tag and STREP tag II, VL-CL; VH residue 1 is Q in Fab; also called 7BA) VH: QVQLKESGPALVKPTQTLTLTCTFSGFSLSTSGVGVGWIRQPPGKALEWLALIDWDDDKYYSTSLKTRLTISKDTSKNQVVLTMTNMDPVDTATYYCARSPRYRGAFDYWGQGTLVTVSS VL: DIVLTQPPSVSGAPGQRVTISCSGSSSNIGSNYVSWYQQLPGTAPKLLIYDNNQRPSGVPDRFSGSKSGTSASLAITGLQSEDEADYYCQSYDFSVYVFGGGTKLTVLG : Kd value = 54.7

Please fill in: Kd reported for MS-GPC-8-1 Fab (Fab, V domains shown, Fab: VH-CH1 with FLAG tag and STREP tag II, VL-CL; VH residue 1 is Q in Fab) VH: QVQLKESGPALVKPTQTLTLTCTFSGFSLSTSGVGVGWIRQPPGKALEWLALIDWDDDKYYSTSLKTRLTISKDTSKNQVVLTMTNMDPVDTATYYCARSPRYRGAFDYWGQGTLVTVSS VL: DIVLTQPPSVSGAPGQRVTISCSGSSSNIGSNYVSWYQQLPGTAPKLLIYDNNQRPSGVPDRFSGSKSGTSASLAITGLQSEDEADYYCQSYDFSHYVFGGGTKLTVLG = 108

# binder MS-GPC-8-6 Fab (Fab, V domains shown, Fab: VH-CH1 with FLAG tag and STREP tag II, VL-CL; VH residue 1 is Q in Fab) VH: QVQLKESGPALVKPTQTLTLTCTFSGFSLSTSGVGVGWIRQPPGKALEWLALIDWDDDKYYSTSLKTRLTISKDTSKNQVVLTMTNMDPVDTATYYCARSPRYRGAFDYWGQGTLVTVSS VL: DIVLTQPPSVSGAPGQRVTISCSGSSSNIGSNYVSWYQQLPGTAPKLLIYDNNQRPSGVPDRFSGSKSGTSASLAITGLQSEDEADYYCQSYDYDHYVFGGGTKLTVLG ; its Kd = 58.6

Form: binder = MS-GPC-8-6-27 Fab (Fab, V domains shown, Fab: VH-CH1 with FLAG tag and STREP tag II, VL-CL; VH residue 1 is Q in Fab) VH: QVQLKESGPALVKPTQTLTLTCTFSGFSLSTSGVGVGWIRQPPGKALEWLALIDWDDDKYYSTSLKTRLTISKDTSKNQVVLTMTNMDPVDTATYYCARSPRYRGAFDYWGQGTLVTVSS VL: DIVLTQPPSVSGAPGQRVTISCSGSDSNIGANYVTWYQQLPGTAPKLLIYDNNQRPSGVPDRFSGSKSGTSASLAITGLQSEDEADYYCQSYDYDHYVFGGGTKLTVLG ; Kd = 6.3

The binder listed as MS-GPC-8-27-10 Fab (Fab, V domains shown, Fab: VH-CH1 with FLAG tag and STREP tag II, VL-CL; VH residue 1 is Q in Fab) VH: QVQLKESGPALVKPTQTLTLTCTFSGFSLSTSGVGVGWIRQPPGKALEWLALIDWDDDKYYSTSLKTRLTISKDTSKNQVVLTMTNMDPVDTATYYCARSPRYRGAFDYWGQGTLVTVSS VL: DIVLTQPPSVSGAPGQRVTISCSGSESNIGANYVNWYQQLPGTAPKLLIYDNNQRPSGVPDRFSGSKSGTSASLAITGLQSEDEADYYCQSYDMNVHVFGGGTKLTVLG has a reported Kd of 3.01

Value of measured Kd for the entry MS-GPC-8-9 Fab (Fab, V domains shown, Fab: VH-CH1 with FLAG tag and STREP tag II, VL-CL; VH residue 1 is Q in Fab) VH: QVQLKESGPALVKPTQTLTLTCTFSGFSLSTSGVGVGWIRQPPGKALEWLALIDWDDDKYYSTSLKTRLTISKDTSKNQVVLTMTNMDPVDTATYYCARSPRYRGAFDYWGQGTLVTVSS VL: DIVLTQPPSVSGAPGQRVTISCSGSSSNIGSNYVSWYQQLPGTAPKLLIYDNNQRPSGVPDRFSGSKSGTSASLAITGLQSEDEADYYCQSYDIQLHVFGGGTKLTVLG : 90.1

Kd in this record for MS-GPC-8 Fab (Fab, V domains shown, Fab from pMx9_Fab: VH-CH1 with FLAG tag and STREP tag II, VL-CL; VH residue 1 is Q in Fab; also called B8-Fab; B8) VH: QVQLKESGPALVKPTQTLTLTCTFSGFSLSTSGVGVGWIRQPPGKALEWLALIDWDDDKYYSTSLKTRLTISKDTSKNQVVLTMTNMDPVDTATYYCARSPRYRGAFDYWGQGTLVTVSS VL: DIVLTQPPSVSGAPGQRVTISCSGSSSNIGSNYVSWYQQLPGTAPKLLIYDNNQRPSGVPDRFSGSKSGTSASLAITGLQSEDEADYYCQSYDMPQAVFGGGTKLTVLG : 346

Looking up MS-GPC-8-6-19 Fab (Fab, V domains shown, Fab: VH-CH1 with FLAG tag and STREP tag II, VL-CL; VH residue 1 is Q in Fab) VH: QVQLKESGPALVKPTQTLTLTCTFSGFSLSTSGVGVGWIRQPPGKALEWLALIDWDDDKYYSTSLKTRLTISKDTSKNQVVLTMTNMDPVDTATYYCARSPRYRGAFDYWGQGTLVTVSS VL: DIVLTQPPSVSGAPGQRVTISCSGSESNIGSNYVAWYQQLPGTAPKLLIYDNNQRPSGVPDRFSGSKSGTSASLAITGLQSEDEADYYCQSYDYDHYVFGGGTKLTVLG , I see its Kd listed as 8.74

Memo: MS-GPC-8-18 Fab (Fab, V domains shown, Fab: VH-CH1 with FLAG tag and STREP tag II, VL-CL; VH residue 1 is Q in Fab) VH: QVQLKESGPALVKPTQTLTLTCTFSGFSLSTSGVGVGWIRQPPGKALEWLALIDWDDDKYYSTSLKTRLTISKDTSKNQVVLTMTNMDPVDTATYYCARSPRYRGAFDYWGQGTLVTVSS VL: DIVLTQPPSVSGAPGQRVTISCSGSSSNIGSNYVSWYQQLPGTAPKLLIYDNNQRPSGVPDRFSGSKSGTSASLAITGLQSEDEADYYCQSYDFSIYVFGGGTKLTVLG , reported Kd: 78.3

Each recorded value in this set is attributed to patent US7521047.
